Kindly state In vitro activity compared with native peptide (%) vs GLP-1 (cAMP EC50) for each of the entries shown.
# Tgt: human GLP-1 receptor (human, UniProt P43220 24-463)
# Protocol: cell-based or functional assay
Square brackets hold non-standard residues; d marks the D form. Ends that are not written are not given here. * marks the point of attachment. Acetyl(2-(4-imidazolyl)) = O=C(Cc1c[nH]cn1)*; Aib = CC(C)(N)C(=O)O
# number only, unit % dropped from output

Prompt line: Give the measured In vitro activity compared with native peptide (%) vs GLP-1 (cAMP EC50) of H[Aib]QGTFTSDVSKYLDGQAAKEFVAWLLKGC [triple agonist of SEQ ID NO: 7] .
Response line: 13.7

Prompt line: Give the measured In vitro activity compared with native peptide (%) vs GLP-1 (cAMP EC50) of {Acetyl(2-(4-imidazolyl))}-[Aib]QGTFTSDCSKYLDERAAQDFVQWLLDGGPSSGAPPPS [triple agonist of SEQ ID NO: 63] .
Response line: 15.3

Prompt line: Give the measured In vitro activity compared with native peptide (%) vs GLP-1 (cAMP EC50) of H[Aib]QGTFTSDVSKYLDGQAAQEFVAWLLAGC [triple agonist of SEQ ID NO: 9] .
Response line: 32.1

Cited source: patent US20240293512A1
